molecular target: F protein of RSV strain Long (infectious virus) (human respiratory syncytial virus …, UniProt P12568 26-574); test: cell-based or functional assay
Sequence (P12568 26-574): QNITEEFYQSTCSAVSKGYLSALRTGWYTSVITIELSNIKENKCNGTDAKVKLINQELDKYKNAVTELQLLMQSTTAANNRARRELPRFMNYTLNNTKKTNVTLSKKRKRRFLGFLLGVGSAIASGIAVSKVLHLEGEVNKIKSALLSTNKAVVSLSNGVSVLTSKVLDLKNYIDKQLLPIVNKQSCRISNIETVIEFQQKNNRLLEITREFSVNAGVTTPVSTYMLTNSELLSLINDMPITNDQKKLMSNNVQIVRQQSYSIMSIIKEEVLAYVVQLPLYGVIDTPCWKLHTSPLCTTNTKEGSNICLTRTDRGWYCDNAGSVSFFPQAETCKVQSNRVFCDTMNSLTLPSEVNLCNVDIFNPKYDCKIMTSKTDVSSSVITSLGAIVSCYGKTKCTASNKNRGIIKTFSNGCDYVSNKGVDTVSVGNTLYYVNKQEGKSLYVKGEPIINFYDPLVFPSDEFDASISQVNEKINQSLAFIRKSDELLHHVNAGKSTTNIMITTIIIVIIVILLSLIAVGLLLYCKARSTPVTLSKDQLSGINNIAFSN
The entries below are paired with their reported Neutralization IC50, plaque-reduction assay.

[
  {
    "binder": "hRSV61 (antibody, V domains shown) VH: QVQLVQSGAELKKPGASVKVSCKASGYTFTNHGITWVRQAPGQGLEWMSWISGYNGNTQYAQKFQGRVTMTTDTSTRTAYMELRSLTSDDTAVYYCARDNGVVVGPPDYWGQGTLVTVSS VL: DIQMTQSPSTLSASVGDRVTISCRASQSISSWLAWYQQKPGKPPKLLIYKASGLQTGVPSRFSGSGSGTEFTLTISSLQPDDFATYYCQYYHSLSAFGQGTKVEIK",
    "test-value": "0.054 µg/mL"
  },
  {
    "binder": "hRSV97 (antibody, V domains shown) VH: EVQLVESGGTLVQPGRSLRLSCAASGFNFEEYAMHWVRQVPGKGLEWVARINWNGGIIGYADSVKGRFTISRDNAKKSLYLQMNSLRTDDSALYYCGKDVFWAVAGTGGPIDSWGQGTLVTVSS VL: DIVMTQSPSSLSASIGDRVTISCRASRDISNYLAWYQQKSGKVPKLLIYAASTLESGVPSRFSGSGSGTDFTLTISSLQPEDVATYYCQNYNSAQMCSFGQGPSLEIK",
    "test-value": "0.106 µg/mL"
  }
]

Now look at this entry.
Look at this binder and give its reported Neutralization IC50, plaque-reduction assay. palivizumab (antibody, V domains shown) VH: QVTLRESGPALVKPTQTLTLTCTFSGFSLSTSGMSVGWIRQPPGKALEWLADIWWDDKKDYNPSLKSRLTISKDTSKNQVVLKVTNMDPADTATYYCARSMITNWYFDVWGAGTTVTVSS VL: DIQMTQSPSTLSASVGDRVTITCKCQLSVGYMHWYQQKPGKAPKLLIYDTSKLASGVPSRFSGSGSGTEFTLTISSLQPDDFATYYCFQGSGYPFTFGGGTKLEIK
0.212 µg/mL
